Entries and their MIC
# System: Haemophilus influenzae
# Experiment description: Antimicrobial activity against beta-lactamase negative ampicillin-susceptible Haemophilus influenzae by E-test
# Type: functional
Readout type: MIC (µg/mL)

Smiles string: CO/N=C(\C(=O)N[C@@H]1C(=O)N2C(C(=O)O)=C(CSc3nc(=O)c(O)nn3C)CS[C@H]12)c1csc(N)n1
Readout type: MIC
Unit abbreviation: µg/mL
Value relation sign: =
Measured result: 0.008
--
Smiles string: CC1(C)S[C@@H]2[C@H](NC(=O)[C@H](N)c3ccccc3)C(=O)N2[C@H]1C(=O)O
Readout type: MIC
Unit abbreviation: µg/mL
Value relation sign: =
Measured result: 0.25
--
Smiles string: C[C@@H](O)[C@H]1C(=O)N2C(C(=O)O)=C(S[C@@H]3CN[C@H](C(=O)N(C)C)C3)[C@H](C)[C@H]12
Readout type: MIC
Unit abbreviation: µg/mL
Value relation sign: =
Measured result: 0.064
--
Smiles string: C[C@H]1COc2c(N3CCN(C)CC3)c(F)cc3c(=O)c(C(=O)O)cn1c23.C[C@H]1COc2c(N3CCN(C)CC3)c(F)cc3c(=O)c(C(=O)O)cn1c23.O
Readout type: MIC
Unit abbreviation: µg/mL
Value relation sign: <
Measured result: 0.06
